# measurement target: CCR5 receptor (Homo sapiens, UniProt P51681)
# Sequence (P51681 whole entry): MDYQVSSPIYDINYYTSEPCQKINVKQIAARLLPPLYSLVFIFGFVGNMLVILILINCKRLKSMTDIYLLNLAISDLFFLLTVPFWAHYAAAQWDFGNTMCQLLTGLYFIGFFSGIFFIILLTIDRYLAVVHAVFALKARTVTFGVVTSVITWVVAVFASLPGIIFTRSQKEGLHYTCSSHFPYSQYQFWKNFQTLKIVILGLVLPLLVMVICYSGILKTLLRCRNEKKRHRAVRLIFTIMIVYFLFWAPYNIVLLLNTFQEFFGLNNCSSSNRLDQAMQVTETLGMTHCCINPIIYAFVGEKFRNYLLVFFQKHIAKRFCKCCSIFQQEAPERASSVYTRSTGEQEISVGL
# test method notes: [35S]GTPγS binding assay
# Type: biochemical
# condition parameters: Table I; [35S]GTPγS binding; read-out: IC50
assay endpoint: log10(IC50) (log10 of the value in µM)

molecule | measurement target | log10(IC50)
O=C(c1ccccc1I)N1CC(CN2CCC(c3ccccc3)CC2)C(O)(c2ccccc2)C1 (centres unmarked) [I-b-c] | CCR5 receptor (Homo sapiens, UniProt P51681) | 0.06
C=CCN(C(=O)COc1ccccc1)C1CCN(CC2CN(C(=O)C3CCCC3)CC2(O)c2ccccc2)CC1 (centres unmarked) [III-a-l] | CCR5 receptor (Homo sapiens, UniProt P51681) | -1.87
C=CCN(C(=O)OCc1ccc([N+](=O)[O-])cc1)C1CCN(CC2CN(C(=O)c3ccccc3)CC2(O)c2ccccc2)CC1 (centres unmarked) [III-a-b] | CCR5 receptor (Homo sapiens, UniProt P51681) | -2.01
CCN(C(=O)OCc1ccccc1)C1CCN(CC2CN(Cc3ccccc3)CC2(O)c2ccccc2)CC1 (centres unmarked) [II-a-a] | CCR5 receptor (Homo sapiens, UniProt P51681) | -0.40
C=CCN(C(=O)OCc1ccc(OC)cc1)C1CCN(CC2CN(C(=O)C3CCCC3)CC2(O)c2ccccc2)CC1 (centres unmarked) [III-a-i] | CCR5 receptor (Homo sapiens, UniProt P51681) | -2.36
